molecular target: Galectin-3 (Homo sapiens, UniProt P17931); assay: fluorescence anisotropy assay, compound as inhibitor of galectin / fluorescein tagged saccharide probe interaction
Sequence (P17931 whole entry): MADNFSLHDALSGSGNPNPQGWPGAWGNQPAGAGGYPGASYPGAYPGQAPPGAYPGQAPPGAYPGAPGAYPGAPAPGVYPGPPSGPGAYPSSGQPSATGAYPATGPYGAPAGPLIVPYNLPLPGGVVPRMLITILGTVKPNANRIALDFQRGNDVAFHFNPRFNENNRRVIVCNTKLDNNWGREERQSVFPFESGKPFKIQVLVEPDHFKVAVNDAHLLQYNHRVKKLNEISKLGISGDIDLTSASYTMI
Recorded pKd values for a group of compounds are listed next.
In textbook form, pKd equals minus log to base ten of the concentration in mol/L.

| COMPOUND | NUMBER |
| --- | --- |
| N#Cc1ccc(Cl)cc1S[C@@H]1C[C@@H](n2cc(-c3nc(Cl)cs3)nn2)[C@@H](O)[C@@H](CO)O1 | 5.92 |
| CCNC(=O)c1ncc(Cl)cc1S[C@H]1O[C@H](CO)[C@H](O)[C@H](n2cc(-c3nc(Cl)cs3)nn2)[C@H]1OC | 7.13 |
| CO[C@@H]1[C@@H](n2cc(-c3csc(N)n3)nn2)[C@@H](O)[C@@H](CO)O[C@@H]1Sc1ccc(C#N)c(Cl)c1 | 5.44 |
| OC[C@H]1O[C@H](Sc2ccc(Cl)c(Cl)c2)[C@H](OCC(F)(F)F)[C@@H](n2cc(-c3csc(O)n3)nn2)[C@H]1O | 5.17 |
| COC1C(n2cc(-c3nc(Cl)cs3)nn2)[C@@H](O)C(CO)O[C@@H]1Sc1cc(Cl)cnc1C(=O)N1CCC1 (some centres unmarked) | 7.13 |

Continue with the next compound.
Prompt: Could you tell me which pKd is on file for C#Cc1cncc(S[C@H]2O[C@H](CO)[C@H](O)[C@H](n3cc(-c4nc(Cl)cs4)nn3)[C@H]2OC)c1 ?
Response: 6.41
